B1: Kelch-like protein 12 (Homo sapiens), Q53G59 (parent)
chain: MGGIMAPKDIMTNTHAKSILNSMNSLRKSNTLCDVTLRVEQKDFPAHRIVLAACSDYFCAMFTSELSEKGKPYVDIQGLTASTMEILLDFVYTETVHVTVENVQELLPAACLLQLKGVKQACCEFLESQLDPSNCLGIRDFAETHNCVDLMQAAEVFSQKHFPEVVQHEEFILLSQGEVEKLIKCDEIQVDSEEPVFEAVINWVKHAKKEREESLPNLLQYVRMPLLTPRYITDVIDAEPFIRCSLQCRDLVDEAKKFHLRPELRSQMQGPRTRARLGANEVLLVVGGFGSQQSPIDVVEKYDPKTQEWSFLPSITRKRRYVASVSLHDRIYVIGGYDGRSRLSSVECLDYTADEDGVWYSVAPMNVRRGLAGATTLGDMIYVSGGFDGSRRHTSMERYDPNIDQWSMLGDMQTAREGAGLVVASGVIYCLGGYDGLNILNSVEKYDPHTGHWTNVTPMATKRSGAGVALLNDHIYVVGGFDGTAHLSSVEAYNIRTDSWTTVTSMTTPRCYVGATVLRGRLYAIAGYDGNSLLSSIECYDPIIDSWEVVTSMGTQRCDAGVCVLREK

# Variants of: B1
# Condition Info: with fxl17_human FBXL17, Q9UF56
# Sequence (Q9UF56 whole entry): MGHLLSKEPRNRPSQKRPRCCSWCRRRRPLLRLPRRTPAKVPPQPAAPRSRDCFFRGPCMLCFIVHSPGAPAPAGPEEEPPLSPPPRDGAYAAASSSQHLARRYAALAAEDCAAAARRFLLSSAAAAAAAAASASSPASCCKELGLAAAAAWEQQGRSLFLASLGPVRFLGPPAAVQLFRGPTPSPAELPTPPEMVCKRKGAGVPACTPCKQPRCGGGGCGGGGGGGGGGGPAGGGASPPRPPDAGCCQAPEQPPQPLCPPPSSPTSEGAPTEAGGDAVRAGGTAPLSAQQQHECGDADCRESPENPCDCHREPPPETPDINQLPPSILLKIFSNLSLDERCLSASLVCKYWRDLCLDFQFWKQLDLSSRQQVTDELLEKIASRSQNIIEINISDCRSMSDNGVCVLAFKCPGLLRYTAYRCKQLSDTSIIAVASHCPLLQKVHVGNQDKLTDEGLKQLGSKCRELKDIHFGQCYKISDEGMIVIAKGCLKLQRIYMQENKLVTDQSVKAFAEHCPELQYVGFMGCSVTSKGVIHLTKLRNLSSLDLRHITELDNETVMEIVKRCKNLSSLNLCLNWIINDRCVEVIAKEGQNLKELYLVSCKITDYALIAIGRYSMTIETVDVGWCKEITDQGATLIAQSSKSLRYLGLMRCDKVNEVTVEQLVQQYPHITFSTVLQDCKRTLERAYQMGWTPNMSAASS

- Change: "I49A"
  effect of a mutation on the interaction: "causing an interaction"
- Change: "N24K"
  effect of a mutation on the interaction: "causing an interaction"
